From: PubChem BioAssay AID2501

- test: counter assay for TAg ATPase ADP read-out – biochemical, ADP-Hunter, fluorescence, counter-screen (AID 2501);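 note: purified T antigen ATPase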
- conditions_used: series mostly up to 100 µM
The campaign covered roughly 2,200 compounds. About 1,200 (55%) were called active. No cut-off is given here; in the data, nearly all actives have IC50 up to about 92 µM. The set was probably picked from earlier hits. The list shows a part of the results.
Assign a class; possible classes are active, inactive

**Q:** Recorded call for COc1ccc(NC2CCCN(C(=O)c3ccncc3)C2)cc1 (stereo unspecified) ?
**A:** active

**Q:** Hello, I am checking results. What call was entered for COc1ccc(NC2CCCN(C(=O)c3ccc(OC)o3)C2)cc1 (stereo unspecified) ?
**A:** active

**Q:** Which outcome did this test record for the molecule O=C(c1ccco1)N1CCCC(Nc2ccc3c(c2)OCCO3)C1 (stereo unspecified) ?
**A:** active

**Q:** Hey, what did the test say about COCc1ccc(C(=O)N2CCCC(CCC(=O)NCc3ccccc3F)C2)o1 (stereo unspecified) ?
**A:** inactive

**Q:** # outcome recorded in this test, key = O=C(c1ccco1)N1CCN(C(=O)N2CCCC2)CC1
**A:** inactive

**Q:** Kindly provide the recorded test outcome for the following molecule: O=C(c1cc(F)ccc1F)C1CCCN(C(=O)c2ccc(F)cc2Cl)C1 (stereo unspecified)
**A:** inactive
